Biological target: Cytochrome P450 2D6 (Homo sapiens, UniProt P10635)
Sequence (P10635 whole entry): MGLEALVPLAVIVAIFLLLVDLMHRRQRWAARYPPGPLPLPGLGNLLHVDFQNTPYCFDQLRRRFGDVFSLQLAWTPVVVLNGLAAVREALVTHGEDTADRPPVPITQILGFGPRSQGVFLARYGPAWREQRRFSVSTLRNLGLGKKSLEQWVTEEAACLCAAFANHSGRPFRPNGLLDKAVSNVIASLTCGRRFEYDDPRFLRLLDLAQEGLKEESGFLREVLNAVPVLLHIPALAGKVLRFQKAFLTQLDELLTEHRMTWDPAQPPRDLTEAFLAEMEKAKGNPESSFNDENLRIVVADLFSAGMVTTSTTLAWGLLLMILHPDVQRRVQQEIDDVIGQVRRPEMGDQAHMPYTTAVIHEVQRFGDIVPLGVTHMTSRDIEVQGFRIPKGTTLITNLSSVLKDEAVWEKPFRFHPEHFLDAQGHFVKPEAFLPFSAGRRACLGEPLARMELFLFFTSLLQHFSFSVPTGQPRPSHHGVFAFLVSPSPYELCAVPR
pIC50: −log10 of the molar value.

Chemical Smiles: Cl.O=C1c2ccccc2C(=O)c2c1cccc2-c1cnn(C2CCNCC2)c1
pIC50: < 4.30

###

Test: Volume of distribution at steady state in rat at 5 mg/kg, iv
Format: ADME, organism-based
Details: in vivo, read-out: Vdss
Property Name: Vd (L/kg)

Chemical Smiles: Cl.O=C1c2ccccc2C(=O)c2c1cccc2-c1cnn(C2CCNCC2)c1
Recorded Value: 5.52

###

Target: Cytochrome P450 2C19 (Homo sapiens)
Sequence (P33261 whole entry): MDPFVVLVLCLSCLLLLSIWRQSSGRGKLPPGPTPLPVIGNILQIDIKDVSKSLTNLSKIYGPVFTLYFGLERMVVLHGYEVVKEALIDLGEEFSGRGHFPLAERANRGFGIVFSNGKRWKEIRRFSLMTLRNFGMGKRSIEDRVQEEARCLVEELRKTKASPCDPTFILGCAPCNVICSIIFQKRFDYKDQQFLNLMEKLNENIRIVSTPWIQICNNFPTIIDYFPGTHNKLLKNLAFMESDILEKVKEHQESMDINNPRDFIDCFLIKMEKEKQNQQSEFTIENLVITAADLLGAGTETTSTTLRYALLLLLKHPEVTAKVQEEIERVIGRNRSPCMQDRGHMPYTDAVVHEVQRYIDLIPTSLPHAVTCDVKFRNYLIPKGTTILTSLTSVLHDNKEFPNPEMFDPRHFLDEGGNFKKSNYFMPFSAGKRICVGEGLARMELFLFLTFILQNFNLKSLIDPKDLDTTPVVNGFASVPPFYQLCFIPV
pIC50: −log10 of the molar value.
Property Name: pIC50

Chemical Smiles: Cl.O=C1c2ccccc2C(=O)c2c1cccc2-c1cnn(C2CCNCC2)c1
Recorded Value: 4.37

###

Assay: Half life in human liver microsomes at 1 uM preincubated for 5 mins followed by NADPH/UDPGA addition by LC-MS/MS analysis
Format: ADME, Microsome

Chemical Smiles: Cl.O=C1c2ccccc2C(=O)c2c1cccc2-c1cnn(C2CCNCC2)c1
half-life at 1 µM: > 1 h

###

Target: UDP-glucuronosyltransferase 1A1 (Homo sapiens)
Sequence (P22309 whole entry): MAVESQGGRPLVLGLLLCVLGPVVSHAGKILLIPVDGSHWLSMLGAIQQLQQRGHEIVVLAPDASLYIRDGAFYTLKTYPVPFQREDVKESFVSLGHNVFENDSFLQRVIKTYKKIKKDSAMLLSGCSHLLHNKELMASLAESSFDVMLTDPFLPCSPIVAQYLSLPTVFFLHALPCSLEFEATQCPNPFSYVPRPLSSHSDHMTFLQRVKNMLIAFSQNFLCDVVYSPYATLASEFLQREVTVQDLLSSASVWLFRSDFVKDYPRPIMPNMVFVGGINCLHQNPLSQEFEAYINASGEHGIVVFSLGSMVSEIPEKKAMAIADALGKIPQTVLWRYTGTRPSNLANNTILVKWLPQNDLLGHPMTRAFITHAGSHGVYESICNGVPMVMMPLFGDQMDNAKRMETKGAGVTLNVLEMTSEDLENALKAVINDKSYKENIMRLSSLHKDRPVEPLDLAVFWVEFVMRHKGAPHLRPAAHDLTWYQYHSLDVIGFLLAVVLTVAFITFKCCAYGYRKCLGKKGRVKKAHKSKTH
Property Name: IC50

Chemical Smiles: Cl.O=C1c2ccccc2C(=O)c2c1cccc2-c1cnn(C2CCNCC2)c1
Recorded Value: > 50 µM

###

Biological target: CYP3A (Homo sapiens, UniProt P08684+P20815+P24462+Q9HB55)
Experiment: Inhibition of CYP3A in human liver microsomes assessed as reduction in midazolam 1'-hydroxylation by tandem mass spectrometry analysis
Type: ADME
Conditions: probe midazolam (1'-hydroxylation)
pIC50: −log10 of the molar value.

Chemical Smiles: Cl.O=C1c2ccccc2C(=O)c2c1cccc2-c1cnn(C2CCNCC2)c1
Experimental Target: CYP3A (Homo sapiens, UniProt P08684+P20815+P24462+Q9HB55)
pIC50: 4.44

###

Target: Cytochrome P450 1A2 (Homo sapiens)
Sequence (P05177 whole entry): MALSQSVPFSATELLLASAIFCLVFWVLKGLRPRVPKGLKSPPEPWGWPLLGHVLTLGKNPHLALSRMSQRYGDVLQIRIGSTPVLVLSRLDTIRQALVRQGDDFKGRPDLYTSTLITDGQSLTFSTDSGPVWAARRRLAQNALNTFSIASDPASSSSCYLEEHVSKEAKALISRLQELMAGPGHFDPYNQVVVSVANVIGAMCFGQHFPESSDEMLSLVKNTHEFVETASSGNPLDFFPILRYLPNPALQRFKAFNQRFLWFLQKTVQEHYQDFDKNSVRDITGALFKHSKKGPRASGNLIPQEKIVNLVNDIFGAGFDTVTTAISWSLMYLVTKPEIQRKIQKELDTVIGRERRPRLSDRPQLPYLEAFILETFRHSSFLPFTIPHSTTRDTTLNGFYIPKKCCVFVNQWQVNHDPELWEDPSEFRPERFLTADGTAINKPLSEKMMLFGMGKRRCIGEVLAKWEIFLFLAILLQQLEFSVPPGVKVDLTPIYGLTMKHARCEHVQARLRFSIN
Assay: Inhibition of CYP1A2 in human liver microsomes assessed as reduction in phenacetin-O-deethylation by tandem mass spectrometry analysis
Format: ADME
pIC50: −log10 of the molar value.
Property Name: pIC50

Chemical Smiles: Cl.O=C1c2ccccc2C(=O)c2c1cccc2-c1cnn(C2CCNCC2)c1
Experimental Target: Cytochrome P450 1A2 (Homo sapiens)
Property Name: pIC50
Recorded Value: 4.79

###

System: Vero
Test: Cytotoxicity against African green monkey Vero cells
Assay type: cell-based
Details: Chlorocebus sabaeus
Property Name: IC50

Chemical Smiles: Cl.O=C1c2ccccc2C(=O)c2c1cccc2-c1cnn(C2CCNCC2)c1
Experimental Target: Vero
Recorded Value: 36.4 µM

###

Test: Tmax in rat at 10 mg/kg, po
Format: ADME, organism-based
Conditions: in vivo
Property Name: Tmax (h)

Chemical Smiles: Cl.O=C1c2ccccc2C(=O)c2c1cccc2-c1cnn(C2CCNCC2)c1
Property Name: Tmax
Recorded Value: 6

###

Molecular target: UDP-glucuronosyltransferase 1A9 (Homo sapiens, UniProt O60656)
Sequence (O60656 whole entry): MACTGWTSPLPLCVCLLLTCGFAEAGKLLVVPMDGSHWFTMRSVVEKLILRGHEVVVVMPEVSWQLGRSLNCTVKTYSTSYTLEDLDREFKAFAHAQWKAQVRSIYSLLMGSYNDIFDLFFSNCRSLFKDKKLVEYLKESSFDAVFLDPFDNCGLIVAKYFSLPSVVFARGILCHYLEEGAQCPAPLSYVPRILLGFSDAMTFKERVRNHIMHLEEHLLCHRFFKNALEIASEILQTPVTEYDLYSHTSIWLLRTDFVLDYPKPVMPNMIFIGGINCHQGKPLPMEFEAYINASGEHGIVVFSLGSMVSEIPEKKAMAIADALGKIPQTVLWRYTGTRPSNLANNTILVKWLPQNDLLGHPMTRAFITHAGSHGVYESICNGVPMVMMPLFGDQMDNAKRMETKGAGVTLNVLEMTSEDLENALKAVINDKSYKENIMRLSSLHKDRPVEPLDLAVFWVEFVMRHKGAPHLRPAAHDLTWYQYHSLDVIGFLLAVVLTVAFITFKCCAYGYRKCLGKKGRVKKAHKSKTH
pIC50: −log10 of the molar value.
Property Name: pIC50

Chemical Smiles: Cl.O=C1c2ccccc2C(=O)c2c1cccc2-c1cnn(C2CCNCC2)c1
Recorded Value: < 4.30

###

Molecular target: Cytochrome P450 2C9 (Homo sapiens, UniProt P11712)
Sequence (P11712 whole entry): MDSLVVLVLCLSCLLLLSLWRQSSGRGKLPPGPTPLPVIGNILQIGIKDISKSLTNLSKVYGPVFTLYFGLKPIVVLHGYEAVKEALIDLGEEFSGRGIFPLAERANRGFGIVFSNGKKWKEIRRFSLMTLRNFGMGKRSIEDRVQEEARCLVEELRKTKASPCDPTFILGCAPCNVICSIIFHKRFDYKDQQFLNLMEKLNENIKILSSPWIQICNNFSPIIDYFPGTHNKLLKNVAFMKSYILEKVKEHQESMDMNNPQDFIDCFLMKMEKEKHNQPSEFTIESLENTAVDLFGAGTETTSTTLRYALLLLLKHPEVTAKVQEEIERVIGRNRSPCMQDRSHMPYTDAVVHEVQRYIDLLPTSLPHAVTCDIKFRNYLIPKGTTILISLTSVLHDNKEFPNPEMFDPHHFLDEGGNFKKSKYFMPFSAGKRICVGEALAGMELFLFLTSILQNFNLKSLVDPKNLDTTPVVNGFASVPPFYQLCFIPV
Test: Inhibition of CYP2C9 in human liver microsomes assessed as reduction in tolbutamide 4-hydroxylation by tandem mass spectrometry analysis
Format: ADME
pIC50: −log10 of the molar value.
Property Name: pIC50

Chemical Smiles: Cl.O=C1c2ccccc2C(=O)c2c1cccc2-c1cnn(C2CCNCC2)c1
Property Name: pIC50
Recorded Value: < 4.30

###

Assay: Half life in rat at 5 mg/kg, iv
Format: ADME, organism-based
Details: in vivo

Chemical Smiles: Cl.O=C1c2ccccc2C(=O)c2c1cccc2-c1cnn(C2CCNCC2)c1
Quantity Unit: h
half-life: 7.06

###

Measured remaining at 0.5 h, listed per entry.
Assay: Metabolic stability in rat liver microsomes assessed as parent compound remaining after 30 mins by LC-MS/MS analysis
Type: ADME, Microsome
Settings: read-out: Stability

Chemical Smiles: Cl.O=C1c2ccccc2C(=O)c2c1cccc2-c1cnn(C2CCNCC2)c1
remaining at 0.5 h: 67.8%
//
Chemical Smiles: O=C1CC2(CCCC2)CC(=O)N1CCCCN1CCN(c2ncccn2)CC1
remaining at 0.5 h: 0.1%

###

Biological target: [Pyruvate dehydrogenase (acetyl-transferring)] kinase isozyme 4, mitochondrial (Homo sapiens, UniProt Q16654)
Sequence (Q16654 whole entry, looked up): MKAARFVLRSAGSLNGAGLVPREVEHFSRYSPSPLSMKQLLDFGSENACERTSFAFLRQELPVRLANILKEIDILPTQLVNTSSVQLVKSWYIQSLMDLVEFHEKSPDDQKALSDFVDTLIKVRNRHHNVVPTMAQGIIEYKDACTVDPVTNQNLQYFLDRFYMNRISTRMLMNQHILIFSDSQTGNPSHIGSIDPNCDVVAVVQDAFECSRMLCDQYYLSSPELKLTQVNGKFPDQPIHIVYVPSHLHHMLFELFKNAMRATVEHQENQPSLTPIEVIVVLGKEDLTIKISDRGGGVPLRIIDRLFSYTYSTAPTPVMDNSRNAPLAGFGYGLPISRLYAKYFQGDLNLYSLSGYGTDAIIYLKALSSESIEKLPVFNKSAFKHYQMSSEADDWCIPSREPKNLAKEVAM
Assay: Inhibition of PDK4 (unknown origin) at 10 uM relative to control
Record yes whenever inhibition is at 40% or higher; record no when lower.

Compound: O=C1c2ccccc2C(=O)c2c1cccc2C1=CCNCC1
Classification: no
--
Compound: CC(C)(C)OC(=O)N1CCC(n2cc(-c3cccc4c3C(=O)c3ccccc3C4(O)C(F)(F)F)cn2)CC1 (centres undefined)
Classification: no
--
Compound: O=C1c2ccccc2C(=O)c2c1cccc2C1=CCN(C(=O)OCc2ccccc2)CC1
Classification: yes
--
Compound: CC(C)(C)OC(=O)N1CCC(n2cc(-c3cccc4c3C(=O)c3ccccc3C4=O)cn2)CC1
Classification: no
--
Compound: O=S(=O)(c1ccc(O)cc1O)N1Cc2cc(O)cc(O)c2C1
Classification: no
--
Compound: O=C1c2ccccc2C(=O)c2c1cccc2C1=CCN(C(=O)Nc2ccccc2)CC1
Classification: no
--
Compound: CCOC(=O)C(C)n1cc(-c2cccc3c2C(=O)c2ccccc2C3=O)cn1 (centres undefined)
Classification: no
--
Compound: O=C1c2ccccc2C(=O)c2c1cccc2-c1cnn(C2CCCCO2)c1 (centres undefined)
Classification: no
--
Compound: O=C1c2ccccc2C(O)(C(F)(F)F)c2cccc(C3=CCN(C(=O)OCc4ccccc4)CC3)c21 (centres undefined)
Classification: no
--
Compound: Cl.O=C1c2ccccc2C(=O)c2c1cccc2-c1cnn(C2CCNCC2)c1
Classification: yes
--
Compound: O=C1c2ccccc2C(O)(C(F)(F)F)c2cccc(-c3cnn(C4CCNCC4)c3)c21 (centres undefined)
Classification: no
--
Compound: O=C1c2ccccc2C(=O)c2c(Br)cccc21
Classification: no
--
Compound: CC(C)(C)OC(=O)N1CC=C(c2cccc3c2C(=O)c2ccccc2C3=O)CC1
Classification: yes
--
Compound: CCOC(=O)C(C)n1cc(-c2cccc3c2C(=O)c2ccccc2C3(O)C(F)(F)F)cn1 (centres undefined)
Classification: no
--
Compound: O=C1c2ccccc2C(=O)c2c1cccc2-c1cccnc1
Classification: no
--
Compound: O=C1c2ccccc2C(O)(C(F)(F)F)c2cccc(C3=CCNCC3)c21 (centres undefined)
Classification: no
--
Compound: O=C1c2ccccc2C(=O)c2c1cccc2-c1ccc(O)cc1
Classification: no
--
Compound: O=C1c2ccccc2C(=O)c2c1cccc2-c1cn[nH]c1
Classification: no
--
Compound: O=C(O)c1ccc(-c2cccc3c2C(=O)c2ccccc2C3=O)cc1
Classification: no
--
Compound: CC(C(=O)O)n1cc(-c2cccc3c2C(=O)c2ccccc2C3=O)cn1 (centres undefined)
Classification: yes
--
Compound: CC(C)(C)OC(=O)N1CC=C(c2cccc3c2C(=O)c2ccccc2C3(O)C(F)(F)F)CC1 (centres undefined)
Classification: no
--
Compound: CC(C(=O)O)n1cc(-c2cccc3c2C(=O)c2ccccc2C3(O)C(F)(F)F)cn1 (centres undefined)
Classification: yes
--
Compound: CS(=O)(=O)N1CC=C(c2cccc3c2C(=O)c2ccccc2C3=O)CC1
Classification: no
